organism: Rattus norvegicus; test: Minimum effective dose (MED) perorally in passive cutaneous anaphylaxis (PCA) model for 50% inhibition in Sprague-Dawley rat; assay type: functional; details: po, read-out: MED
property: minimal effective dose

mol smiles	result
O=c1cc(-c2nn[nH]n2)nc2sc3ccccc3n12	> 10 mg/kg
O=C(Nc1nn[nH]n1)c1cc(=O)n2c(n1)sc1ccccc12	> 10 mg/kg
O=c1c(-c2nnn[nH]2)cnc2oc3ccccc3n12	5 mg/kg

Please give minimal effective dose, item by item, for the list that follows.
1. Cn1c2ccccc2n2c(=O)cc(C(=O)Nc3nn[nH]n3)nc12
2. O=C(Nc1nn[nH]n1)c1cnc2oc3ccccc3n2c1=O
3. Cn1c2ccccc2n2c(=O)cc(C(=O)O)nc12
4. O=c1c(-c2nnn[nH]2)cnc2sc3ccccc3n12
5. O=C(O)c1cc(=O)n2c(n1)oc1ccccc12
6. O=C(O)c1cnc2oc3ccccc3n2c1=O
7. O=C(Nc1nn[nH]n1)c1cc(=O)n2c(n1)oc1ccccc12

10 mg/kg
10 mg/kg
> 10 mg/kg
> 10 mg/kg
> 10 mg/kg
> 10 mg/kg
> 10 mg/kg

Give me minimal effective dose for each of these compounds, listed below.
1. O=C(Nc1nn[nH]n1)c1cnc2sc3ccccc3n2c1=O
2. O=C(O)c1cnc2sc3ccccc3n2c1=O
3. Cn1c2ccccc2n2c(=O)c(-c3nnn[nH]3)cnc12
4. O=C(O)c1cc(=O)n2c(n1)sc1ccccc12

> 10 mg/kg
> 10 mg/kg
2.5 mg/kg
> 10 mg/kg

###

tested on: Rattus norvegicus; test: Minimum effective dose (MED) intraperitoneally in passive cutaneous anaphylaxis (PCA) model for 50% inhibition in Sprague-Dawley rat; type: functional; settings: ip, read-out: MED
property: minimal effective dose (mg/kg)
Numbers only, in mg/kg.

# per-item lookup of minimal effective dose; items listed below
1. O=c1cc(-c2nn[nH]n2)nc2sc3ccccc3n12
2. O=C(Nc1nn[nH]n1)c1cc(=O)n2c(n1)sc1ccccc12
3. O=C(Nc1nn[nH]n1)c1cnc2sc3ccccc3n2c1=O
4. Cn1c2ccccc2n2c(=O)c(-c3nnn[nH]3)cnc12

[5, 1.25, 1.25, 0.31]

# return minimal effective dose for each item in the list
1. O=C(O)c1cc(=O)n2c(n1)oc1ccccc12
2. Cn1c2ccccc2n2c(=O)c(C(=O)Nc3nn[nH]n3)cnc12
3. O=c1cc(-c2nn[nH]n2)nc2oc3ccccc3n12
4. Cn1c2ccccc2n2c(=O)cc(C(=O)Nc3nn[nH]n3)nc12
5. O=C(Nc1nn[nH]n1)c1cnc2oc3ccccc3n2c1=O

1. 5
2. 0.31
3. 1.25
4. 1.25
5. 1.25

###

system: Rattus norvegicus; assay: Minimum effective dose (MED) intraperitoneally in passive cutaneous anaphylaxis (PCA) model for 50% inhibition in Sprague-Dawley rat; format: functional; settings: ip, read-out: MED
Kindly state minimal effective dose for each of the entries shown.
Give bare numbers, in mg/kg.

Take a look at these entries with their results.
mol smiles	measured number
O=c1c(-c2nnn[nH]2)cnc2oc3ccccc3n12	1.25
Cn1c2ccccc2n2c(=O)c(C(=O)O)cnc12	0.63
Cn1c2ccccc2n2c(=O)cc(-c3nn[nH]n3)nc12	5

Quick batch: minimal effective dose for everything below.
1. O=c1c(-c2nnn[nH]2)cnc2sc3ccccc3n12
2. O=C(Nc1nn[nH]n1)c1cc(=O)n2c(n1)oc1ccccc12

[1.25, 1.25]
